Protocol summary: Total drug recovery in human at 120 mg/m'2, iv administered as single dose measured up to 3 weeks
Type: ADME, organism-based
Experimental conditions: in vivo, read-out: Drug recovery
Reported endpoint: dose excreted at 504 h (%)
Field: numeric (%). Do not append units.

Data point: "Cl.Cn1c(CCCC(=O)O)nc2ccc(N(CCCl)CCCl)cc21" ; dose excreted at 504 h = 76

====

Protocol summary: Drug recovery in human urine at 120 mg/m'2, iv administered as single dose measured up to 3 weeks
Type: ADME, organism-based
Experimental conditions: read-out: Drug recovery
Reported endpoint: dose excreted at 504 h (%)
Number only, in %; omit the unit.

dose excreted at 504 h recorded for this molecule, "Cl.Cn1c(CCCC(=O)O)nc2ccc(N(CCCl)CCCl)cc21" , is 3
